molecular target: hNaV1.7 (Homo sapiens, UniProt Q15858); construct: expressed in transfected cells; host or cells: HEK293; assay: QPatch NaV1.7 assay (whole-cell patch clamp, QPatch16x); assay type: cell-based; settings: holding voltage V1/2 SSI (half of channels inactivated), HEK293-hNaV1.7 cells, read-out: QP Nav1.7 SSI vhalf pIC50 (converted)
Sequence (Q15858 whole entry): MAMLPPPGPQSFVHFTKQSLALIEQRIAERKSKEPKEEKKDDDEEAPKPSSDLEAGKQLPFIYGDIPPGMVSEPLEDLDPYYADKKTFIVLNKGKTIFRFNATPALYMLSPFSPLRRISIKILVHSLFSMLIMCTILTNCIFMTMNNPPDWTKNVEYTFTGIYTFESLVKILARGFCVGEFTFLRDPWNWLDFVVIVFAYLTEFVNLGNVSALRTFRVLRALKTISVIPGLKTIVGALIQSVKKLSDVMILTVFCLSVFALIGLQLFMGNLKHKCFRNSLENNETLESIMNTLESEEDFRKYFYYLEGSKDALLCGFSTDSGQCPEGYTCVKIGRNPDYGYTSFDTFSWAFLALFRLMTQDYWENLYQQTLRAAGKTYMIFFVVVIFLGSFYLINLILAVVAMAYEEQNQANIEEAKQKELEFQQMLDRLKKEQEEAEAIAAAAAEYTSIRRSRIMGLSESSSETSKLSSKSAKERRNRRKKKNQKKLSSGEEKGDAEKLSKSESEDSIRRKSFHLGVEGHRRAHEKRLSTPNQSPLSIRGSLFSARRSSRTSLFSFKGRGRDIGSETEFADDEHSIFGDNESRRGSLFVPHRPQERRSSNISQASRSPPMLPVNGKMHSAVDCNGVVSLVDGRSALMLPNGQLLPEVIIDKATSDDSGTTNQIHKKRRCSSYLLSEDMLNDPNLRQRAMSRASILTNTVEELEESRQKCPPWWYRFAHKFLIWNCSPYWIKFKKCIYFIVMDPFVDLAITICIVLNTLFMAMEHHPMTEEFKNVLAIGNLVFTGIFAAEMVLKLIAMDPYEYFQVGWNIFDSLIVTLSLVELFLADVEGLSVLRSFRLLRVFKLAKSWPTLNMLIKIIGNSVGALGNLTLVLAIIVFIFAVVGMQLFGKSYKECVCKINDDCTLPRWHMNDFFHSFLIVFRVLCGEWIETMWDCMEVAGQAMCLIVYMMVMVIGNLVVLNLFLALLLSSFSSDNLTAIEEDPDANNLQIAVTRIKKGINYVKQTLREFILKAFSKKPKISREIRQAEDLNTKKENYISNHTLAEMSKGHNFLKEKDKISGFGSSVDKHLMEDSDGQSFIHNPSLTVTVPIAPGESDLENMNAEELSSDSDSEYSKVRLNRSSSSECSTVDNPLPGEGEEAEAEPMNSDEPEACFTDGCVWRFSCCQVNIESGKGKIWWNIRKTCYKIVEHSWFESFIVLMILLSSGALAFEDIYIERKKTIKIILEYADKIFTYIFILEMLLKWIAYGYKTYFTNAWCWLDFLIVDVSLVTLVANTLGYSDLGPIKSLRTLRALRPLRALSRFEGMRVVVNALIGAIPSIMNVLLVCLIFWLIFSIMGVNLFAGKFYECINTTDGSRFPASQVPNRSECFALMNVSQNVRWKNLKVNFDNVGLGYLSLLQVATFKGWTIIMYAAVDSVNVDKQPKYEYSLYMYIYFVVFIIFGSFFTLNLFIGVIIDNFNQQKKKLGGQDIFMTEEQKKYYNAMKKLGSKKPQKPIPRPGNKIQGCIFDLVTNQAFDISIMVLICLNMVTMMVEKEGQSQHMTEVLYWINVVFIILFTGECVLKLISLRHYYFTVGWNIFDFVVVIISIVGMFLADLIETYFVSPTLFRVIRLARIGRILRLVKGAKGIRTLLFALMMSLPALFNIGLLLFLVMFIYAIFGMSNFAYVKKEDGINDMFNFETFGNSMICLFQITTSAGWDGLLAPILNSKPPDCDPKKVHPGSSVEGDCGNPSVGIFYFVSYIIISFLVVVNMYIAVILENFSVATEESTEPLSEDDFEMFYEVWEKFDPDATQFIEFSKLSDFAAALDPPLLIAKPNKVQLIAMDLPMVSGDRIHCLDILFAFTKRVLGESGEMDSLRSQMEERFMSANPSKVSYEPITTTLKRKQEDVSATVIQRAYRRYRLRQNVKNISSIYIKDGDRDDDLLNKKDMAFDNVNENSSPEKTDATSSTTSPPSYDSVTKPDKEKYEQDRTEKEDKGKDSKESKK
Structures can show the parent of a compound that is named as a salt.
QUANTITY_MEASURED: IC50 (µM)

Some compounds with known IC50 results, for comparison:
CN1CC[C@@]2(CC[C@H](c3cc(-c4cccc(C(F)(F)F)c4)ccn3)N2)C1=O [Example 75, hydrochloride] :: 20
COc1cc(C(F)(F)F)ccc1-c1cc([C@H]2CC[C@@]3(CCN(C)C3=O)N2)ncc1C [Example 131, hydrochloride] :: 2
Cc1cc(-c2ccc(C(F)(F)F)cc2)cc([C@H]2CC[C@@]3(CCNC3=O)N2C)n1 [Example 229, hydrochloride] :: 3.16

a = Cc1cc(-c2cc(C(F)(F)F)ccc2C(N)=O)cc([C@H]2CC[C@]3(CCN(C)C3=O)N2)n1 [Example 26, hydrochloride]
b = CCCOc1cccc(-c2ccnc([C@H]3CC[C@@]4(CCN(C)C4=O)N3)c2)c1 [Example 179, hydrochloride]
c = Cc1cc(-c2cc(C(F)(F)F)ccc2C(N)=O)cc([C@H]2CC[C@@]3(CCN(C)C3=O)N2)n1 [Example 24, hydrochloride]
d = Cc1c(-c2ccc(F)cc2)ccnc1[C@H]1CC[C@@]2(CCN(C)C2=O)N1 [Example 19, hydrochloride]
input: Please list these in order of increasing IC50. Thank you! Order the labels as requested and list them.
output: b, d, c, a
(b: 0.794 µM, d: 6.31 µM, c: 398 µM, a: 794 µM)

P = CN1CC[C@@]2(CC[C@H](c3cc(-c4ccccc4OC(F)(F)F)ccn3)N2)C1=O [Example 3, hydrochloride]
Q = CCOc1ccc(F)c(-c2ccnc([C@H]3CC[C@]4(CC[C@H](C)NC4=O)N3)c2)c1 [Example 243, hydrochloride]
input: Which of these two has the smaller recorded IC50: P or Q ? The response must carry the label of the picked entry.
output: Q
(Q: 1.26 µM, P: 7.94 µM)

a = Cc1c(-c2ccc(C(F)(F)F)cc2)ccnc1[C@@H]1CC[C@]2(CCN(C)C2=O)N1 [Example 15, hydrochloride]
b = CCOc1ccc(F)c(-c2ccnc([C@H]3CC[C@]4(CCN(C)C4=O)N3)c2)c1 [Example 146, hydrochloride]
c = CCOc1ccc(F)c(-c2cc([C@H]3CC[C@]4(CCN(C)C4=O)N3)ncc2F)c1 [Example 222, hydrochloride]
input: Please list these in order of increasing IC50. Thank you! Order the labels as requested and list them.
output: b, a, c

a = CCOc1cc(F)ccc1-c1ccnc([C@H]2CC[C@@]3(CCN(C)C3=O)N2)c1 [Example 169, hydrochloride]
b = CN1CC[C@@]2(CC[C@@H](c3cc(-c4ccc(C(F)(F)F)cc4)c(F)cn3)N2)C1=O [Example 59, hydrochloride]
input: Which of these two has the smaller recorded IC50: a or b ? The response must carry the label of the picked entry.
output: b
(b: 3.16 µM, a: 6.31 µM)
